Reference source: patent US9339486B2

Target Or Test System: UniProt P34972
Experimental Details: GTPγ[35S] functional assay, CHO membrane extracts hCB2
Setup Conditions: read-out: Agonist EC50 (mean ± s.e. mean) GTPγ[35S] functional assays hCB2
Measure Name: EC50 (nM)
Unit nM implied. Number only.

# EC50 lookup, item CC1(Cc2ccccc2)COc2cc(C(=O)N3CCCCC3)ccc21 (stereo not shown)
128

----------
Target Or Test System: CB1 (Homo sapiens (Human), UniProt P21554)
Sequence (P21554 whole entry): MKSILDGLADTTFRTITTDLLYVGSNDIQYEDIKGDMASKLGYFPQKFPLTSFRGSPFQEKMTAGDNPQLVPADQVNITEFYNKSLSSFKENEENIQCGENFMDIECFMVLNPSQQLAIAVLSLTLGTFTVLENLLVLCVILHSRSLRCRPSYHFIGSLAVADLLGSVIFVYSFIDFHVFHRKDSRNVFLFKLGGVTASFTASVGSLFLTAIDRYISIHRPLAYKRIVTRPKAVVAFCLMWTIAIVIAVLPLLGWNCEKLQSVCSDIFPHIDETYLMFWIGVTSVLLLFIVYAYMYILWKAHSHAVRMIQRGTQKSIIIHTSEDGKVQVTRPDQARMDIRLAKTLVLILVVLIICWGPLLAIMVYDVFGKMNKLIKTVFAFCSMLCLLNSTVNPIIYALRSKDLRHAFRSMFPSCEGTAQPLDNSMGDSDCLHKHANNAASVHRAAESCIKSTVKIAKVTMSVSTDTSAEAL
Experimental Details: CB1 Binding Assay ([3H]CP 55940, cell membrane homogenates)
Setup Conditions: CB1; test concentration 1.0E−05 (MD)
Kindly return TRUE if reported % Inhibition of Control Specific Binding is no lower than 10%; return FALSE if it is lower.

Please tell me: is the compound CC1(Cc2ccccc2)COc2ccc(C(=O)Nc3ccccc3I)cc21 (centres unmarked) [Example 4] at or over 10% in terms of % Inhibition of Control Specific Binding?
FALSE

Is % Inhibition of Control Specific Binding for CC1(Cc2ccccc2)COc2cc(C(=O)NC3CCCCC3)ccc21 (centres unmarked) [Example 2] at or above 10%?
TRUE

# check: % Inhibition of Control Specific Binding of CC1(Cc2ccccc2)COc2cc(C(=O)Nc3ccccc3I)ccc21 (centres unmarked) [Example 1] is greater than or equal to 10%
TRUE

Quick check, % Inhibition of Control Specific Binding >= 10%? CC1(Cc2ccccc2)COc2ccc(C(=O)NC3CCCCC3)cc21 (centres unmarked) [Example 5]
TRUE

Given CC1(Cc2ccccc2)COc2cc(C(=O)N3CCCCC3)ccc21 (centres unmarked) [Example 3] , state whether its % Inhibition of Control Specific Binding is at least 10%.
TRUE
